Target: TLR8 (Homo sapiens, UniProt Q9NR97)
Sequence (Q9NR97 27-1041): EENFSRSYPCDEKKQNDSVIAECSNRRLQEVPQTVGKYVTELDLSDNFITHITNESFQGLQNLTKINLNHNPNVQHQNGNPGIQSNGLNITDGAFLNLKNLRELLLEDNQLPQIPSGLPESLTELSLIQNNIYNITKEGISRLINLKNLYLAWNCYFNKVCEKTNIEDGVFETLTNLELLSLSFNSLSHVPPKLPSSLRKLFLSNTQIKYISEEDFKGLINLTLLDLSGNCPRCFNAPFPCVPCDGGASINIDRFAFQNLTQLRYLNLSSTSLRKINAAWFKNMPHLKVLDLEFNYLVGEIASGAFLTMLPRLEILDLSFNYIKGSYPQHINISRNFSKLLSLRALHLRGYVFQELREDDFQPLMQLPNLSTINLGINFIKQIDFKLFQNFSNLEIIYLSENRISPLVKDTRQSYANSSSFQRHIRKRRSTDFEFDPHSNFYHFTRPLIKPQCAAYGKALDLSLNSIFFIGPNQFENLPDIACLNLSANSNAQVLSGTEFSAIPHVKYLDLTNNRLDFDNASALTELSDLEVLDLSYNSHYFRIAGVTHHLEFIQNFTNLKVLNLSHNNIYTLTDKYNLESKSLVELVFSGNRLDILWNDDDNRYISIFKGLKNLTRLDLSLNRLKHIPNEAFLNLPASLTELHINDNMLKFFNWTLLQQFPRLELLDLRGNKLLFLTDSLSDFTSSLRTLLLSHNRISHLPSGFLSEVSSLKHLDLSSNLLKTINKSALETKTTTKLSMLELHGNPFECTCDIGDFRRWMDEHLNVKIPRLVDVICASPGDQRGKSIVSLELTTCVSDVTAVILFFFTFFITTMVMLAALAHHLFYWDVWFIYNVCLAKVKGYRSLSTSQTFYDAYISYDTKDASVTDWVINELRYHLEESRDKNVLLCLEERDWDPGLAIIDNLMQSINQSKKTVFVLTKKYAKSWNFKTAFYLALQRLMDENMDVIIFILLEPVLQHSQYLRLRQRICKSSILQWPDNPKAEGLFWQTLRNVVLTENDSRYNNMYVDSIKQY
Test: huPBMC TLR8 Antagonist IL-6 TR-FRET Assay
Type: cell-based
Design: Fresh blood was collected from normal human donors; endogenous in cells; host or cells: human PBMCs from fresh donor blood
Settings: human PBMCs stimulated with ssRNA40 1 μg/ml (DOTAP), 14-16 hrs; IL-6 TR-FRET read-out
MEASUREMENT_NAME: IC50 (nM)
Field: numeric (nM). Do not append units.

Check out these entries, answers already filled in.
> print(dat)
                                   compound  value.observed
1  CN[C@H](C)C(=O)NC12CCC(Cn3nc(C)c4c3CCN(c3cc(C)nc5c3cnn5C)C4)(CC1)CC2 [compound 117]             236
2  Cc1cc(N2CCc3c(c(C)nn3CC34CCC(n5ccnc5)(CC3)CC4)C2)c2cnn(C)c2n1 [Compound No. 119]            1180
3  Cc1cc(N2CCc3c(c(C)nn3CC34CCC(N5CCC5)(CC3)CC4)C2)c2cnn(C)c2n1 [compound 64]             115

// query Please report the recorded IC50 for Cc1cc(N2CCc3c(c(C)nn3CC34CCC(N5CCCCC5)(CC3)CC4)C2)c2cnn(C)c2n1 [compound 67] .
// result 11

// query Please report the recorded IC50 for Cc1nc(N2CCc3c(c(C)nn3CC34CCC(N5CC6(COC6)C5)(CC3)CC4)C2)c2c(n1)c(C)nn2C [Compound No. 10] .
// result 48
